- Test system: ternary complex comprising RAS and CypA; KRAS^G12V (Homo sapiens, UniProt P01116+P62937, G12V)
- Sequence (P01116 1-188 isoform P01116-2 G12V): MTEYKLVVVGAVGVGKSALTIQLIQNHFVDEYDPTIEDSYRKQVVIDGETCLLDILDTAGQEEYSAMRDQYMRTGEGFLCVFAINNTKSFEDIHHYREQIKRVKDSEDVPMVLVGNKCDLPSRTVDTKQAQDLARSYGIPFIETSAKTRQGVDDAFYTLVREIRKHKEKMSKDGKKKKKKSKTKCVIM
- Sequence (P62937 whole entry): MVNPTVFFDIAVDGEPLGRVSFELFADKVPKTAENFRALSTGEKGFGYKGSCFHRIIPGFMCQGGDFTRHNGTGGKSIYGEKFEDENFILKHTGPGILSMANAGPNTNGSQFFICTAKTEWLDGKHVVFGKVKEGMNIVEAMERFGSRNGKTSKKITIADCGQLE
- Assay info: Ternary complex binding assay (BLI), KRAS G12V
- Experimental setup: GMPPNP-loaded KRAS^G12V, fixed concentration of CypA, pH 7.4, read-out: KD2 (ternary complex equilibrium dissociation constant)
pKd: −log10 of the molar value.
Measurement label: pKd

Reference set, count: 3
CO[C@@H](C)c1ncc(-c2nnc(C3CCN(C4COC4)CC3)o2)cc1-c1c2c3cc(ccc3n1CC(F)(F)F)-c1csc(n1)C[C@H](NC(=O)C1[C@@H](C)[C@H]1C)C(=O)N1N[C@H](C(=O)OCC(C)(C)C2)C2CC1C2 (some centres unmarked) = 8.08
CO[C@@H](C)c1ncc(-c2nnc(C3CCN(C4COC4)CC3)o2)cc1-c1c2c3cc(ccc3n1CC(F)(F)F)-c1csc(n1)C[C@H](NC(=O)[C@H]1[C@H](C)[C@@H]1C)C(=O)N1CCC[C@H](N1)C(=O)OCC(C)(C)C2 (atropisomer, axis not shown) = 7.59
CO[C@@H](C)c1ncc(-c2nnc(C3CCN(C4COC4)CC3)o2)cc1-c1c2c3cc(ccc3n1CC(F)(F)F)-c1csc(n1)C[C@H](NC(=O)[C@H]1C[C@@H]1C)C(=O)N1CCC[C@H](N1)C(=O)OCC(C)(C)C2 (atropisomer, axis not shown) = 7.57

[a] CCn1c(-c2cc(-c3nc(C4CCN(C5COC5)CC4)n(C)n3)cnc2[C@H](C)OC)c2c3cc(ccc31)-c1csc(n1)C[C@H](NC(=O)[C@H]1[C@H](C)[C@@H]1C)C(=O)N1CCC[C@H](N1)C(=O)OCC(C)(C)C2 (atropisomer, axis not shown)
[b] CO[C@@H](C)c1ncc(-c2nnc(C3CCN(C4CN(C(C)C)C4)CC3)o2)cc1-c1c2c3cc(ccc3n1CC(F)(F)F)-c1csc(n1)C[C@H](NC(=O)[C@H]1[C@H](C)[C@@H]1C)C(=O)N1CCC[C@H](N1)C(=O)OCC(C)(C)C2 (atropisomer, axis not shown)
Larger number for pKd: a , or b ? Pick one; state its label.
b
(b: 7.92, a: 7.60)

----------
- Test system: ternary complex comprising RAS and CypA; KRAS^WT (Homo sapiens, UniProt P01116+P62937)
- Sequence (P01116 1-188 isoform P01116-2, one chain of several): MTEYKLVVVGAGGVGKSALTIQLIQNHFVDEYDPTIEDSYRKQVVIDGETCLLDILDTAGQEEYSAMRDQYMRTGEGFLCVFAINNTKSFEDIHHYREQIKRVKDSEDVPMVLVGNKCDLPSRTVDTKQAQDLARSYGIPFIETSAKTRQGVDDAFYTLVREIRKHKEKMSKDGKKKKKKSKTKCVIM
- Assay info: Ternary complex binding assay (BLI), KRAS WT
- Experimental setup: GMPPNP-loaded KRAS^WT, fixed concentration of CypA, pH 7.4, read-out: KD2 (ternary complex equilibrium dissociation constant)
pKd: −log10 of the molar value.
Measurement label: pKd

Reference set, count: 3
CCn1c(-c2cc(-c3nc(C4CCN(C5COC5)CC4)n(C)n3)cnc2[C@H](C)OC)c2c3cc(ccc31)-c1csc(n1)C[C@H](NC(=O)[C@H]1[C@H](C)[C@@H]1C)C(=O)N1CCC[C@H](N1)C(=O)OCC(C)(C)C2 (atropisomer, axis not shown) = 7.57
CO[C@@H](C)c1ncc(-c2nnc(C3CCN(C4COC4)CC3)o2)cc1-c1c2c3cc(ccc3n1CC(F)(F)F)-c1csc(n1)C[C@H](NC(=O)[C@H]1[C@H](C)[C@@H]1C)C(=O)N1CCC[C@H](N1)C(=O)OCC(C)(C)C2 (atropisomer, axis not shown) = 7.80
CO[C@@H](C)c1ncc(-c2nnc(C3CCN(C4COC4)CC3)o2)cc1-c1c2c3cc(ccc3n1CC(F)(F)F)-c1csc(n1)C[C@H](NC(=O)C1[C@@H](C)[C@H]1C)C(=O)N1N[C@H](C(=O)OCC(C)(C)C2)C2CC1C2 (some centres unmarked) = 8.00

[A] CO[C@@H](C)c1ncc(-c2nnc(C3CCN(C4CN(C(C)C)C4)CC3)o2)cc1-c1c2c3cc(ccc3n1CC(F)(F)F)-c1csc(n1)C[C@H](NC(=O)[C@H]1[C@H](C)[C@@H]1C)C(=O)N1CCC[C@H](N1)C(=O)OCC(C)(C)C2 (atropisomer, axis not shown)
[B] CO[C@@H](C)c1ncc(-c2nnc(C3CCN(C4COC4)CC3)o2)cc1-c1c2c3cc(ccc3n1CC(F)(F)F)-c1csc(n1)C[C@H](NC(=O)[C@H]1C[C@@H]1C)C(=O)N1CCC[C@H](N1)C(=O)OCC(C)(C)C2 (atropisomer, axis not shown)
Larger number for pKd: A , or B ? Pick one; state its label.
A
(A: 8.03, B: 7.77)

----------
- Assay info: Pharmacokinetic study in mice
- Format: in vivo
- Experimental setup: mouse, po, 2 mg/kg; male CD-1 mice, p.o. 2 mpk, whole blood
Measurement label: AUC (ng·h/mL)

CO[C@@H](C)c1ncc(-c2nnc(C3CCN(C4COC4)CC3)o2)cc1-c1c2c3cc(ccc3n1CC(F)(F)F)-c1csc(n1)C[C@H](NC(=O)C1C[C@@H]1C)C(=O)N1N[C@H](C(=O)OCC(C)(C)C2)C2CC1C2 (stereo partly drawn) [Compound 9] = 5740

[P] CO[C@@H](C)c1ncc(-c2nnc(C3CCN(C4COC4)CC3)o2)cc1-c1c2c3cc(ccc3n1CC(F)(F)F)-c1csc(n1)C[C@H](NC(=O)[C@H]1[C@H](C)[C@@H]1C)C(=O)N1CCC[C@H](N1)C(=O)OCC(C)(C)C2 (atropisomer, axis not shown) [Compound 6]
[Q] CCn1c(-c2cc(-c3nnc(C4CCN(C5COC5)CC4)o3)cnc2[C@H](C)OC)c2c3cc(ccc31)-c1csc(n1)C[C@H](NC(=O)[C@H]1[C@H](C)[C@@H]1C)C(=O)N1CCC[C@H](N1)C(=O)OCC(C)(C)C2 (atropisomer, axis not shown) [Compound 2]
Larger number for AUC: P , or Q ? Pick one; state its label.
P

----------
- Tested on: HCT116
- Assay info: In vitro cell proliferation inhibition assay (CellTiter-Glo), HCT116
- Assay type: cell-based
- Experimental setup: HCT116, KRAS (p.G13D), 72 h; read-out: IC50, antiproliferative activity
Measurement label: IC50 (nM)

CCn1c(-c2cc(-c3nnc(C4CCN(C5COC5)CC4)o3)cnc2[C@H](C)OC)c2c3cc(ccc31)-c1csc(n1)C[C@H](NC(=O)[C@H]1[C@H](C)[C@@H]1C)C(=O)N1CCC[C@H](N1)C(=O)OCC(C)(C)C2 (atropisomer, axis not shown) = 0.07
CO[C@@H](C)c1ncc(-c2nnc(C3CCN(C4COC4)CC3)o2)cc1-c1c2c3cc(ccc3n1CC(F)(F)F)-c1csc(n1)C[C@H](NC(=O)C1[C@@H](C)[C@H]1C)C(=O)N1N[C@H](C(=O)OCC(C)(C)C2)C2CC1C2 (some centres unmarked) = 0.03
CO[C@@H](C)c1ncc(-c2nnc(C3CCN(C4COC4)CC3)o2)cc1-c1c2c3cc(ccc3n1CC(F)(F)F)-c1csc(n1)C[C@H](NC(=O)[C@H]1C[C@@H]1C)C(=O)N1CCC[C@H](N1)C(=O)OCC(C)(C)C2 (atropisomer, axis not shown) = 0.02
CO[C@@H](C)c1ncc(-c2nnc(C3CCN(C4COC4)C[C@@H]3C)o2)cc1-c1c2c3cc(ccc3n1CC(F)(F)F)-c1csc(n1)C[C@H](NC(=O)[C@H]1[C@H](C)[C@@H]1C)C(=O)N1N[C@H](C(=O)OCC(C)(C)C2)C2CC1C2 (some centres unmarked) = 0.02
CCn1c(-c2cc(-c3nc(C4CCN(C5COC5)CC4)n(C)n3)cnc2[C@H](C)OC)c2c3cc(ccc31)-c1csc(n1)C[C@H](NC(=O)[C@H]1[C@H](C)[C@@H]1C)C(=O)N1CCC[C@H](N1)C(=O)OCC(C)(C)C2 (atropisomer, axis not shown) = 2.8

[P] CCn1c(-c2cc(-c3nnc(C4CCN(C5CN(C(C)C)C5)CC4)o3)cnc2[C@H](C)OC)c2c3cc(ccc31)-c1csc(n1)C[C@H](NC(=O)[C@H]1C[C@@H]1C)C(=O)N1CCC[C@H](N1)C(=O)OCC(C)(C)C2 (atropisomer, axis not shown)
[Q] CCn1c(-c2cc(-c3nnc([C@H]4CCCN(C5COC5)C4)o3)cnc2[C@H](C)OC)c2c3cc(ccc31)-c1csc(n1)C[C@H](NC(=O)[C@H]1C[C@@H]1C)C(=O)N1CCC[C@H](N1)C(=O)OCC(C)(C)C2 (atropisomer, axis not shown)
[R] CCn1c(-c2cc(N3CCN(C)CC3)cnc2[C@H](C)OC)c2c3cc(ccc31)-c1csc(n1)C[C@H](NC(=O)[C@H]1C[C@@H]1C)C(=O)N1CCC[C@H](N1)C(=O)OCC(C)(C)C2
[S] CCn1c(-c2cc(-c3nc(C4CCN(C5COC5)CC4)n(CCN(C)C)n3)cnc2[C@H](C)OC)c2c3cc(ccc31)-c1csc(n1)C[C@H](NC(=O)[C@H]1C[C@@H]1C)C(=O)N1CCC[C@H](N1)C(=O)OCC(C)(C)C2 (atropisomer, axis not shown)
Rank entries according to their IC50, from the largest number down. Present the labels in the sequence the task asks for.
Q, S, R, P

[A] CO[C@@H](C)c1ncc(-c2nnc(C3CCN(C4CN(C(C)C)C4)CC3)o2)cc1-c1c2c3cc(ccc3n1CC(F)(F)F)-c1csc(n1)C[C@H](NC(=O)[C@H]1[C@H](C)[C@@H]1C)C(=O)N1CCC[C@H](N1)C(=O)OCC(C)(C)C2 (atropisomer, axis not shown)
[B] CCn1c(-c2cc(-c3nc(C4CCN(C5COC5)CC4)n(C4COC4)n3)cnc2[C@H](C)OC)c2c3cc(ccc31)-c1csc(n1)C[C@H](NC(=O)[C@H]1C[C@@H]1C)C(=O)N1CCC[C@H](N1)C(=O)OCC(C)(C)C2 (atropisomer, axis not shown)
Pick one: A or B . Which one has the lower reported IC50? Pick one; state its label.
A

[1] CO[C@@H](C)c1ncc(-c2nnc(C3CCN(C4COC4)CC3)o2)cc1-c1c2c3cc(ccc3n1CC(F)(F)F)-c1csc(n1)C[C@H](NC(=O)[C@H]1[C@H](C)[C@@H]1C)C(=O)N1CCC[C@H](N1)C(=O)OCC(C)(C)C2 (atropisomer, axis not shown)
[2] CO[C@@H](C)c1ncc(-c2nnc(C3CCN(C4CCN(C)CC4)CC3)o2)cc1-c1c2c3cc(ccc3n1CC(F)(F)F)-c1csc(n1)C[C@H](NC(=O)[C@H]1[C@@H]3COC[C@@H]31)C(=O)N1N[C@H](C(=O)OCC(C)(C)C2)C2CC1C2
[3] CO[C@@H](C)c1ncc(-c2nnc(C3CCN(C4COC4)CC3)o2)cc1-c1c2c3cc(ccc3n1CC(F)(F)F)-c1csc(n1)C[C@H](NC(=O)C1C[C@@H]1C)C(=O)N1N[C@H](C(=O)OCC(C)(C)C2)C2CC1C2 (some centres unmarked)
List the 3 entries from lowest IC50 to highest IC50 value. Present the labels in the sequence the task asks for.
3, 1, 2
(3: 0.23 nM, 1: 0.44 nM, 2: 1.1 nM)

[a] CO[C@@H](C)c1ncc(-c2nnc(C3CCN(C4COC4)C3)o2)cc1-c1c2c3cc(ccc3n1CC(F)(F)F)-c1csc(n1)C[C@H](NC(=O)[C@H]1[C@H](C)[C@@H]1C)C(=O)N1N[C@H](C(=O)OCC(C)(C)C2)C2CC1C2 (some centres unmarked)
[b] CO[C@@H](C)c1ncc(-c2noc(C3CCN(C4COC4)CC3)n2)cc1-c1c2c3cc(ccc3n1CC(F)(F)F)-c1csc(n1)C[C@H](NC(=O)[C@H]1[C@H](C)[C@@H]1C)C(=O)N1N[C@H](C(=O)OCC(C)(C)C2)C2CC1C2
Larger number for IC50: a , or b ? Pick one; state its label.
a
(a: 0.58 nM, b: 0.03 nM)
